- Organism: Mus musculus
- assayInfo: In vitro inhibition of electrically evoked contractions of mouse vas deferens(MVD)
- Type: functional, organism-based
endpointName: IC50 (pM)
The reply should contain only the number, in pM.

Provide IC50 value for the following compound: Cc1cc(O)cc(C)c1C[C@H](N)C(=O)N[C@@H](C)C(=O)NCC(=O)N[C@@H](Cc1ccccc1)C(=O)N[C@@H](CC(C)C)C(N)=O 212

###

Peptide text beside a SMILES is read from it. * marks the point of attachment. X1 = Cc1cc(O)cc(C)c1C[C@H](C)C(=O)*
Assay system Kappa-type opioid receptor (Homo sapiens, UniProt P41145); read-out recorded as Ki.

compound	endpointName	observedMeasurement
Cc1cc(O)cc(C)c1C[C@H](C)C(=O)N[C@@H](C)C(=O)NCC(=O)N[C@@H](Cc1ccccc1)C(=O)N[C@@H](CC(C)C)C(N)=O (X1-AGFL-NH2)	Ki	> 10 µM

Here is the next item to consider.
Consider the compound Cc1cc(O)cc(C)c1C[C@H](N)C(=O)N[C@@H](C)C(=O)NCC(=O)N[C@@H](Cc1ccccc1)C(=O)N[C@@H](CC(C)C)C(N)=O tested on Kappa-type opioid receptor (Homo sapiens, UniProt P41145); state its Ki. > 10 µM
